Origin of the recorded values: PubChem BioAssay AID652010

experiment: DAX1 (NR0B1) inhibitors on StAR promoter, primary screen, cell-based, luminescence, SF-1 (NR5A1), full-length DAX-1 (AID 652010); conditions: HEK293T StAR-luciferase reporter, SF-1/DAX-1 repression relief; at 6.8 µM; stronger effect = higher value;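 also: 0% = DAX-1 cells with DMSO and 100% = cells lacking DAX-1 with DMSO; higher inhibition means more luminescence from relief of DAX-1 repression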
About 4,100 (1.1%) of roughly 370,000 compounds were called active. The list comes from a sample in which actives are over-represented; it also holds close analogues and randomly drawn compounds.
reported.endpoint: inhibition (%)
Please state the figure in %; there is no need to write the unit.

Query block: Which inhibition value is on record for `Cc1cccc(N(CC(=O)Nc2ccc(-c3nc4ccc(C)cc4s3)cc2)S(C)(=O)=O)c1` ?
Result block: 1.57

Query block: Which inhibition value is on record for `Cc1ccc(C)c(-n2ccnc2SCC(N)=O)c1` ?
Result block: -0.07

Query block: Which inhibition value is on record for `NC(=O)c1ccsc1NC(=O)COC(=O)Cc1n[nH]c(=O)c2ccccc12` ?
Result block: 1.46

Query block: Which inhibition value is on record for `O=C(CCS(=O)(=O)c1ccccc1)Nc1ccc(Cl)c(Cl)c1` ?
Result block: -0.2

Query block: Which inhibition value is on record for `Cc1ccc2nc(-c3ccc(NC(=O)CN(C)S(=O)(=O)c4ccccc4)cc3)sc2c1` ?
Result block: 3.65

###

assay: DAX1 (NR0B1) inhibitors on StAR promoter, primary screen, cell-based, luminescence, SF-1 (NR5A1), full-length DAX-1 (AID 652010); conditions: HEK293T StAR-luciferase reporter, SF-1/DAX-1 repression relief; at 6.8 µM; stronger effect = higher value;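 also: 0% = DAX-1 cells with DMSO and 100% = cells lacking DAX-1 with DMSO; higher inhibition means more luminescence from relief of DAX-1 repression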
Screen size: about 370,000 compounds; about 4,100 (1.1%) were called active. The sample holds actives, similar compounds and a random draw of the others, so the mix is not that of the screen.
Below is a list of entries, each paired with its recorded inhibition value.
Please state the figure in %; there is no need to write the unit.

Reference set, count: 5
smiles.record	reported.endpoint	result.unit	reading
CSc1ncnc2c1ncn2CCCNCc1cccs1	inhibition	%	0.19
Cc1cccc(C(=O)Nc2c(-c3ccc(F)cc3)nc3ncccn23)c1	inhibition	%	-1.21
COc1ccc(-c2cn3ccsc3n2)cc1	inhibition	%	4.57
CCc1ccc2nc3sc(C(=O)Nc4nnc(CC)s4)c(N)c3cc2c1	inhibition	%	-0.01
CN(C)[C@H]1CCN(c2cccc3c2S(=O)(=O)N2CC[C@H](C2)O3)C1	inhibition	%	0.33

Query block: Which inhibition value is on record for `CCc1nnc(NC(=O)c2ccco2)s1` ?
Result block: 4

Query block: Which inhibition value is on record for `COc1ccc(-c2cn3ccc(C)cc3n2)cc1` ?
Result block: 5.29

Query block: Which inhibition value is on record for `COc1cc(OC)cc(-c2nc(=S)n3ccsc3n2)c1` ?
Result block: -0.3

###

test: DAX1 (NR0B1) inhibitors on StAR promoter, primary screen, cell-based, luminescence, SF-1 (NR5A1), full-length DAX-1 (AID 652010); conditions: HEK293T StAR-luciferase reporter, SF-1/DAX-1 repression relief; at 6.8 µM; stronger effect = higher value;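 also: 0% = DAX-1 cells with DMSO and 100% = cells lacking DAX-1 with DMSO; higher inhibition means more luminescence from relief of DAX-1 repression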
Out of some 370,000 compounds screened, about 4,100 (1.1%) were called active. For the sample, actives were picked, then their nearest neighbours and some compounds at random.
Below is a list of entries, each paired with its recorded inhibition value.
Please state the figure in %; there is no need to write the unit.

Reference set, count: 10
compound	result.unit	reading
CC(C)(C)c1ccc(S(=O)(=O)NCC2CCN(C(=O)C(=O)c3cc4ccccc4o3)CC2)cc1	%	-1.6
Cc1ccc(NC(=O)C2(N3CCC3=O)CCCCC2)cc1	%	-0.08
CCCCOc1ccc(-c2nnc(-c3ccco3)o2)cc1	%	4.13
COc1ccc(/C=C/C(=O)OCC(=O)NC2CCCCCC2)cc1OC	%	2.29
CC1CC(C)CN(CCCNC(=O)c2csc3c2CCCCC3)C1 (stereo not drawn)	%	0.43
CCOc1ccc2cc(C#N)c(SCC(=O)OC)nc2c1	%	3.71
O=C(NCCc1ccc(F)cc1)c1n[nH]c2ccccc12	%	1.23
CC[C@]1(O)C[C@@H]2CN(CCc3c([nH]c4ccccc34)[C@@](C(=O)OC)(c3cc4c(cc3OC)N(C)[C@H]3[C@@](O)(C(=O)OC)[C@H](OC(C)=O)[C@]5(CC)C=CCN6CC[C@]43[C@@H]65)C2)C1	%	9.42
O=C(NC1CCCCN(Cc2cccc(C(F)(F)F)c2)C1=O)c1ccccc1I (stereo not drawn)	%	-0.84
Cc1ccc(NC(=O)c2csc3c2CCCC3)cc1	%	4.28

Shifting focus to the compound that follows.
Query block: Which inhibition value is on record for CCC(C)c1ccc(O)c(/C=N/O)c1 (stereo not drawn) ?
Result block: 0.8
